Just for reference, patent US7507860B2 is where these values come from.

Target: androgen receptor (Homo sapiens)
Sequence (P10275 1-920 Q868H): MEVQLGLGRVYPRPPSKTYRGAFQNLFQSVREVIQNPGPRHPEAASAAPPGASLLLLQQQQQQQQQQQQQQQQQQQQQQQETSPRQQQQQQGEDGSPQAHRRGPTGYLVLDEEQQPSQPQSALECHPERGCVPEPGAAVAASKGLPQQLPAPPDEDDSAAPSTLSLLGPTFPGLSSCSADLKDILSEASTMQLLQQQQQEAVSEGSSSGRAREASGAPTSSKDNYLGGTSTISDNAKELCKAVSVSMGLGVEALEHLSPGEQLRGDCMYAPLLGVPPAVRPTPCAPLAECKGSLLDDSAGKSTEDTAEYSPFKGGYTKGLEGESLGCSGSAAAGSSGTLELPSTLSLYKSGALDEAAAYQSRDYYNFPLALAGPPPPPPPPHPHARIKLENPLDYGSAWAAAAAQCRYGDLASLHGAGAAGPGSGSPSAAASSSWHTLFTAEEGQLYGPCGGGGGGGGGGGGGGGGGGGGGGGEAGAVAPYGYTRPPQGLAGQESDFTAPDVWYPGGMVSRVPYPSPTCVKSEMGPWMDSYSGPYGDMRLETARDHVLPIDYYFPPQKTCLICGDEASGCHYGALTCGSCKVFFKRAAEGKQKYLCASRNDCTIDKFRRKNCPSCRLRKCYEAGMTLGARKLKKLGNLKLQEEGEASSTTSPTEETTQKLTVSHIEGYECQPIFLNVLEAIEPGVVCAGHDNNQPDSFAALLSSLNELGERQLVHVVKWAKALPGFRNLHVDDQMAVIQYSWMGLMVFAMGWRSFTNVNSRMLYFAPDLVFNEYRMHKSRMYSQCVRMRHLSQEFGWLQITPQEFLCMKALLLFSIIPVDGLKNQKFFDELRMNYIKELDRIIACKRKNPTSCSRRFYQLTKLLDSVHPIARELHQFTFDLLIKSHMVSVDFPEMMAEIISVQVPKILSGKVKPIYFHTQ
Test: AR antagonist cell assay (MDA-MB453-MMTV clone 54-19 luciferase reporter, 100 pM DHT)
Format: cell-based
Conditions: MDA-MB453-MMTV clone 54-19, inhibition of 100 pM DHT induction, 17 hr; mean of multiple tests; read-out: AR Cell IC50
pIC50: −log10 of the molar value.
MEASURE: pIC50

COMPOUND: CCCC(Oc1ccc(C#N)c(C(F)(F)F)c1)C(=O)NCc1ccccc1C (stereo not drawn)
CMP: =
MEASURED VALUE: 7.43
//
COMPOUND: CC(C)CC(Oc1ccc(C#N)c(C(F)(F)F)c1)C(=O)NCc1cccnc1 (stereo not drawn)
CMP: <
MEASURED VALUE: 6.00
//
COMPOUND: CCCC(Oc1ccc(C#N)c(C(F)(F)F)c1)C(=O)N[C@H](C)c1ccc(OC)cc1 (stereo in doubt)
CMP: =
MEASURED VALUE: 6.17
//
COMPOUND: CC(C)C[C@@H](Oc1ccc(C#N)c(C(F)(F)F)c1)C(=O)NCCc1ccc(O)cc1
CMP: =
MEASURED VALUE: 6.79
//
COMPOUND: CCOc1ccccc1CNC(=O)C(CC(C)C)Oc1ccc(C#N)c(C(F)(F)F)c1 (stereo not drawn)
CMP: <
MEASURED VALUE: 6.00
//
COMPOUND: CCCC(Oc1ccc(C#N)c(Cl)c1)C(=O)OCC (stereo not drawn)
CMP: =
MEASURED VALUE: 6.13
//
COMPOUND: CCC[C@H](Oc1ccc(C#N)c(C(F)(F)F)c1)C(=O)NCCc1ccc(O)cc1
CMP: =
MEASURED VALUE: 7.24
//
COMPOUND: CC(C)CC(Oc1ccc(C#N)c(C(F)(F)F)c1)C(=O)NC(C)C (stereo not drawn)
CMP: =
MEASURED VALUE: 6.85
//
COMPOUND: CCSCCNC(=O)C(CC(C)C)Oc1ccc(C#N)c(C(F)(F)F)c1 (stereo not drawn)
CMP: =
MEASURED VALUE: 6.14
//
COMPOUND: Cc1ccccc1CNC(=O)C(CC(C)C)Oc1ccc(C#N)c(C(F)(F)F)c1 (stereo not drawn)
CMP: <
MEASURED VALUE: 6.00
//
COMPOUND: CCCC(Oc1ccc(C#N)c(C(F)(F)F)c1)C(=O)NCCc1cccc(OC)c1 (stereo not drawn)
CMP: <
MEASURED VALUE: 6.00
//
COMPOUND: CCCC(Oc1ccc(C#N)c(C(F)(F)F)c1)C(=O)NCC(C)Oc1ccccc1 (stereo not drawn)
CMP: =
MEASURED VALUE: 6.41
//
COMPOUND: COc1ccc(CNC(=O)C(CC(C)C)Oc2ccc(C#N)c(C(F)(F)F)c2)cc1 (stereo not drawn) [Example 73]
CMP: =
MEASURED VALUE: 6.37
//
COMPOUND: CC(C)CC(Oc1ccc(C#N)c(C(F)(F)F)c1)C(=O)NCCCc1cccnc1 (stereo not drawn)
CMP: <
MEASURED VALUE: 6.00
//
COMPOUND: COc1ccc(CCNC(=O)C(CC(C)C)Oc2ccc(C#N)c(C(F)(F)F)c2)cc1 (stereo not drawn) [Example 34]
CMP: <
MEASURED VALUE: 6.00
